Below is a list of entries, each paired with its recorded IC50 value.
# Subject of test: Histone deacetylase 1 (Homo sapiens)
# Sequence (Q13547 whole entry): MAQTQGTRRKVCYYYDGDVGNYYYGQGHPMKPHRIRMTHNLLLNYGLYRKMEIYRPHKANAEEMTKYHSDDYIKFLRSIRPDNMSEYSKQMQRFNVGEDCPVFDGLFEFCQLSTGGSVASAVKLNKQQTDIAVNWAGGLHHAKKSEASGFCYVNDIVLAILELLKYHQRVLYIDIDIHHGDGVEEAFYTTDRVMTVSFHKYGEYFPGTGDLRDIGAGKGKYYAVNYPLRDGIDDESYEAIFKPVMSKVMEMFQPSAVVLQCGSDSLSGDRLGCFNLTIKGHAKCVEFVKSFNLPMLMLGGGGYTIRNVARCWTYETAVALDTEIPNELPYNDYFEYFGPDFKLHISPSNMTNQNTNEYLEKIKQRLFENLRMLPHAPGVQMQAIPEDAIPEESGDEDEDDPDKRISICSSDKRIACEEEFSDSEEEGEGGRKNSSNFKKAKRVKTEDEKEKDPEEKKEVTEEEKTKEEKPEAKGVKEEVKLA
# Experiment summary: Inhibition of human HDAC1 expressed in 293T cells
Give the value, in units of nM, as a plain number.

Examples with answers:
## Input Param item = CC1(C)NC(=O)[C@H](CCCCCSSc2ccccn2)NC(=O)[C@H]2CCCN2C(=O)[C@H](c2ccccc2)NC1=O ; retrieve measured IC50.
## Output 88

## Input Param item = CC1(C)NC(=O)[C@H](CCCCCSSc2ccccn2)NC(=O)[C@H]2CCCN2C(=O)[C@H](COCc2ccccc2)NC1=O ; retrieve measured IC50.
## Output 3.2

Please turn your attention to the following entry.
## Input Param item = C[C@@H]1NC(=O)[C@@]2(CCc3ccccc32)NC(=O)[C@H](CCCCCSSc2ccccn2)NC(=O)[C@H]2CCCN2C1=O ; retrieve measured IC50.
## Output 2.7

meta.source: ChEMBL document CHEMBL1140506
